Exercise: for every item that follows, state its recorded inhibition.
# TESTED_ON: Ephrin type-A receptor 4 (Mus musculus) (UniProt Q03137)
# Sequence (Q03137 whole entry, looked up): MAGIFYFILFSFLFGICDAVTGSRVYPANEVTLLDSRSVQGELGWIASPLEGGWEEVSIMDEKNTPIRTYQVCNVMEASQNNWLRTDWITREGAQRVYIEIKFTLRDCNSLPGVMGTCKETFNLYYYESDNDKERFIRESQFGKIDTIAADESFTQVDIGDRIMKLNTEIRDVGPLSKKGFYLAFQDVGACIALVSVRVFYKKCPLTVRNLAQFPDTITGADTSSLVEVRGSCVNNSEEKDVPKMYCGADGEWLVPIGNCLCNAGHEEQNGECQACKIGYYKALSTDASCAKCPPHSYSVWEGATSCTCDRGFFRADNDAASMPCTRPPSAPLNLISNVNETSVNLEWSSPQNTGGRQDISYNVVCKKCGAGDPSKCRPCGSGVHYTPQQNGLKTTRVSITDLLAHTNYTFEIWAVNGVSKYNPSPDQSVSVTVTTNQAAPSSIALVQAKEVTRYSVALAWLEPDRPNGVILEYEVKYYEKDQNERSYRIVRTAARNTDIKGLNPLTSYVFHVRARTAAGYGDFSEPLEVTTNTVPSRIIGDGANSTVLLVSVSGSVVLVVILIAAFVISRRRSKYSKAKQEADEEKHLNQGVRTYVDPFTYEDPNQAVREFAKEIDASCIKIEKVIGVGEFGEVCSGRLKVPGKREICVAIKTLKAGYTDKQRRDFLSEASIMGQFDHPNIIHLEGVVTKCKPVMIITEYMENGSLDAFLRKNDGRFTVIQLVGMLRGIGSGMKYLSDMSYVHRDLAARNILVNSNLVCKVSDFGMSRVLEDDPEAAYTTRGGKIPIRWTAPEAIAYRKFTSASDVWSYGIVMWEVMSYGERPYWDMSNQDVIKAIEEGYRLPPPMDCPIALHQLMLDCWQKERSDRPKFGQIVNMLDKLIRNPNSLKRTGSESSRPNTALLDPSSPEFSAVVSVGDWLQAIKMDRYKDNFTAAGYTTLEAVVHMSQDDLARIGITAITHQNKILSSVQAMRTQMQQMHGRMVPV
# TEST_PROTOCOL: inhibitors of EphA4 binding to KYL peptide, primary screen, biochemical, colorimetric, mouse EphA4 (AID 689)
# CONDITION_CONTEXT: EphA4-AP binding to KYL peptide, pNPP A405, at 10 µM, hits give high values
The campaign covered roughly 62,000 compounds. About 80 (0.1%) were called active. The list is a sample of the results. Entries with a potency or affinity are not part of this list.

**Query** I'd like to know its inhibition. The compound in question is CCOC(=O)c1c(C)oc2c1c1c(c3ccccc32)OCN(Cc2ccccn2)C1
**Result** 4.9% (inactive)

**Query** I'd like to know its inhibition. The compound in question is CCN1/C(=C/c2ccc3ccccc3[n+]2CC)C=Cc2ccccc21
**Result** 2% (inactive)

**Query** I'd like to know its inhibition. The compound in question is Cc1cc(C=C2C(=O)N(C)C(=O)N(C)C2=O)c(C)n1C
**Result** 3.4% [this sample at 5 µg/mL] (inactive)

**Query** I'd like to know its inhibition. The compound in question is COC(=O)c1cccnc1NC(=S)NNC(=O)c1ccncc1
**Result** 1.4% (inactive)

**Query** I'd like to know its inhibition. The compound in question is Cc1ocnc1C(=O)Nc1ccc(Cl)cc1
**Result** -10.1% (inactive)

**Query** I'd like to know its inhibition. The compound in question is Cc1cc2ccccc2n1CCNC(=O)C1CCCC1
**Result** 0.5% (inactive)

**Query** I'd like to know its inhibition. The compound in question is CCSc1ncnc2c1sc1nc(-c3ccco3)c3c(c12)CC(C)(C)OC3
**Result** -1.2% (inactive)

**Query** I'd like to know its inhibition. The compound in question is O=CNCCCc1nc2ccccc2n1Cc1ccccc1
**Result** 7.7% (inactive)

**Query** I'd like to know its inhibition. The compound in question is Cc1ccc(S(=O)(=O)N(Cc2ccccc2)c2ccccc2C(=O)NCc2ccc(Cl)cc2)cc1
**Result** 22% [this sample at 5 µg/mL] (inactive)

**Query** I'd like to know its inhibition. The compound in question is COc1ccc(C(CC(=O)Nc2ccc(F)cc2)c2ccccc2)cc1 (configuration not stated)
**Result** -16.8% (inactive)

**Query** I'd like to know its inhibition. The compound in question is N#CC(c1ccc(O)cc1)N1CCCCC1 (configuration not stated)
**Result** 0.9% (inactive)

**Query** I'd like to know its inhibition. The compound in question is CC(=O)c1c(C)n(-c2ccccc2)c2ccc(OCC(O)CN3CCOCC3)cc12 (configuration not stated)
**Result** -25.3% (inactive)

**Query** I'd like to know its inhibition. The compound in question is O=C(/C(=C/c1ccccc1[N+](=O)[O-])c1nc2ccccc2[nH]1)c1ccccc1
**Result** 9% [this sample at 5 µg/mL] (inactive)

**Query** I'd like to know its inhibition. The compound in question is CSc1nc(N(C)CCO)c2sc3nc(-c4ccco4)c4c(c3c2n1)CCC4
**Result** 46.9% (inactive)

**Query** I'd like to know its inhibition. The compound in question is CSc1nc(N2CCN(CCO)CC2)c2sc3nc(-c4ccco4)c4c(c3c2n1)CCC4
**Result** -2.2% (inactive)

The measured values listed here are drawn from PubChem BioAssay AID689.
